# Test system: A498 renal
# procedure-text: NCI-60 one-dose screen, 48 h
# assay-setup: 10 µM unless noted
# Method: Growth inhibition of the A498 human tumor cell line is measured as a screen for anti-cancer activity. Cells are grown in 96 well plates and exposed to the test compound for 48 hours. Compounds are tested at a single concentration, which is 10^-5 M for most compounds. The reported endpoint is percent growth (GI% or GIPRCNT), where numbers from 0 - 100% represent growth inhibition, and numbers from -100% - 0 represent cell death. For example, a value of 40 represents 60% growth inhibition. […]
This is part of a sample that, as a whole, favours compounds with a hit. Of some 83,000 tested, about 20% had one in any assay. Activity calls are given as the source filed them. The calls were made as follows: active = growth percent below 10; inactive = the rest.
Field 'call' accepts active, inactive

>>> class("COc1cc(C2=NN(C=O)C(c3cccc(Nc4ccnc5cc(Cl)ccc45)c3)C2)cc(OC)c1OC (stereo not given)")
"inactive"
>>> class("COc1cc2c(cc1OC)C(CC1(O)CCCCC1)N(S(=O)(=O)c1ccc(C)cc1)CC2 (stereo not given)")
"active"
>>> class("COc1ccc(C2CC(c3ccc(Nc4ccnc5cc(Cl)ccc45)cc3)=NN2C(C)=O)cc1 (stereo not given)")
"inactive"
>>> class("Cc1sc2nc3c4ccccc4c(NCCCN(C)C)nn3c(=O)c2c1C")
"inactive"

Proceed to the following item.
Req: For this compound, state the assay outcome: C[C@@H]1CN(c2nc3c(cc2F)c(=O)c(C(=O)O)cn3C(C)(C)C)C[C@H](C)N1
Resp: inactive
